Kindly supply the reported K app values for the records listed here.
# System: Nucleic Acid
# TEST NAME: Tested for binding association constant against T4 coliphage DNA using ethidium bromide assay
# Format: nucleic-acid assay
Numbers only, in M⁻¹.

Cn1cc(NC(=O)c2cc(NC(=O)c3cc(NC=O)cn3C)cn2C)cc1C(=O)NCCC(=N)N: 650000

Record K app for all entries; do not skip any.
1. CN(C)CCNC(=O)c1nc(NC(=O)c2nc(NC(=O)CCNC(=O)c3nc(NC=O)cn3C)cn2C)cn1C
2. CN(C)CCNC(=O)c1nc(NC(=O)CCNC(=O)c2nc(NC=O)cn2C)cn1C
3. CN(C)CCNC(=O)c1nc(NC(=O)c2nc(NC(=O)CCCNC(=O)c3nc(NC=O)cn3C)cn2C)cn1C
4. CN(C)CCNC(=O)c1nc(NC(=O)CCCNC(=O)c2nc(NC=O)cn2C)cn1C

1. 1.9e+06
2. 140000
3. 140000
4. 33000

###

# Test system: Nucleic Acid
# TEST NAME: Tested for binding association constant against calf thymus using ethidium bromide assay
# Assay type: nucleic-acid assay
# CONDITIONS: Bos taurus
MEASUREMENT TYPE: K app (M⁻¹)
One number for each entry, in M⁻¹.

CN(C)CCNC(=O)c1nc(NC(=O)CCCNC(=O)c2nc(NC=O)cn2C)cn1C: 10000

Batch of 3 compounds: report K app for each.
1. CN(C)CCNC(=O)c1nc(NC(=O)c2nc(NC(=O)CCNC(=O)c3nc(NC=O)cn3C)cn2C)cn1C
2. CN(C)CCNC(=O)c1nc(NC(=O)CCNC(=O)c2nc(NC=O)cn2C)cn1C
3. CN(C)CCNC(=O)c1nc(NC(=O)c2nc(NC(=O)CCCNC(=O)c3nc(NC=O)cn3C)cn2C)cn1C

1. 1.6e+06
2. 150000
3. 48000

###

# Test system: Nucleic Acid
# TEST NAME: Tested for binding association constant against Poly (dG-dC) using ethidium bromide assay
# Assay type: nucleic-acid assay
Decide by K app: equal to or exceeding 600000 M⁻¹ means yes, less means no.

Study these solved cases before continuing.
CN(C)CCNC(=O)c1nc(NC(=O)CCCNC(=O)c2nc(NC=O)cn2C)cn1C: no
CN(C)CCNC(=O)c1nc(NC(=O)c2nc(NC(=O)CCNC(=O)c3nc(NC=O)cn3C)cn2C)cn1C: yes
CN(C)CCNC(=O)c1nc(NC(=O)CCNC(=O)c2nc(NC=O)cn2C)cn1C: no
Cn1cc(NC(=O)c2cc(NC(=O)c3cc(NC=O)cn3C)cn2C)cc1C(=O)NCCC(=N)N: no

Confirm if K app reported for the compound CN(C)CCNC(=O)c1nc(NC(=O)c2nc(NC(=O)CCCNC(=O)c3nc(NC=O)cn3C)cn2C)cn1C is 600000 M⁻¹ or above. no

###

# Test system: Nucleic Acid
# TEST NAME: Tested for binding association constant against Poly (dA.dT) using ethidium bromide assay
# Type: nucleic-acid assay
I'd be grateful if you could share measured log10(K app) for these entries.
Recall that a logarithmic scale is used here: each number is log10 of K app in M⁻¹.

Here's what some known entries look like.
Cn1cc(NC(=O)c2cc(NC(=O)c3cc(NC=O)cn3C)cn2C)cc1C(=O)NCCC(=N)N: 7.54
CN(C)CCNC(=O)c1nc(NC(=O)c2nc(NC(=O)CCNC(=O)c3nc(NC=O)cn3C)cn2C)cn1C: 5.40
CN(C)CCNC(=O)c1nc(NC(=O)CCCNC(=O)c2nc(NC=O)cn2C)cn1C: 4.00
CN(C)CCNC(=O)c1nc(NC(=O)c2nc(NC(=O)CCCNC(=O)c3nc(NC=O)cn3C)cn2C)cn1C: 4.70

Quick one: log10(K app) of CN(C)CCNC(=O)c1nc(NC(=O)CCNC(=O)c2nc(NC=O)cn2C)cn1C ? 4.08
